Answer each item with its documented pKi.
# target: chimeric human H3 receptor (Homo sapiens, UniProt Q9Y5N1, E19D)
# Construct: made in house; host or cells: Sf9 insect cells (baculovirus infection); P2 membrane preparation
# Sequence (Q9Y5N1 with tags, fused parts or gaps E19D): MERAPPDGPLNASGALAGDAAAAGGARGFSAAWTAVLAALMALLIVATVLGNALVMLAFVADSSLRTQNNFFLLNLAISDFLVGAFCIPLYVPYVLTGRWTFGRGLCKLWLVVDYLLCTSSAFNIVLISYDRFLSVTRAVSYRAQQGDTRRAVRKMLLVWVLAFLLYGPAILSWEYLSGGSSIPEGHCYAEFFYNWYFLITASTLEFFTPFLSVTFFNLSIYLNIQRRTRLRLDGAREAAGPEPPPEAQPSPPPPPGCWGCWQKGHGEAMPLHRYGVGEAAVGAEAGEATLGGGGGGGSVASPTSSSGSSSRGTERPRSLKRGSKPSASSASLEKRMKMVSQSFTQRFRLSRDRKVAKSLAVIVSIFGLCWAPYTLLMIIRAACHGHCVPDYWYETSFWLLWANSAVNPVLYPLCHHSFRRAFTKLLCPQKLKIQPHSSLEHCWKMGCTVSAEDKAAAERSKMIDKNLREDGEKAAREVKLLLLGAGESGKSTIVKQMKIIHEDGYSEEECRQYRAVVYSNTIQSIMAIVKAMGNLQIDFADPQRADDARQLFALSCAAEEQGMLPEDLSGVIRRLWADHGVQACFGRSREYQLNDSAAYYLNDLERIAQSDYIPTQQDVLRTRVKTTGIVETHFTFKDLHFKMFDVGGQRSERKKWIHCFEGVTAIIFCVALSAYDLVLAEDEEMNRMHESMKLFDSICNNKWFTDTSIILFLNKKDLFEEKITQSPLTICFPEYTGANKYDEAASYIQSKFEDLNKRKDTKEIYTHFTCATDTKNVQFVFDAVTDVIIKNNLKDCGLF
# measurementProtocol: Chimeric human H3 receptor GTP binding assay (agonist-stimulated GTP-gamma35S binding, Example 7)
# Type: biochemical
# appliedConditions: Table II; assay of Example 7; "*" in Ki; read-out: Ki
# Protocol: This Example illustrates a representative assay for evaluating agonist-stimulated GTP-gamma^35S binding (“GTP binding”) activity. […] A compound analyzed in this assay is referred to herein as a “test compound.” […] After a 60-min incubation at room temperature, reactions are terminated by vacuum filtration over WHATMAN GF/C filters (pre-soaked in wash buffer, 0.1% BSA) followed by washing with ice-cold wash buffer (50 mM Tris pH 7.4, 120 mM NaCl). […] Data is expressed as percent above basal (baseline). […]
pKi: −log10 of the molar value.

Looking up O=C(CN1CCN(c2ccc(-c3ccc(Cl)cc3Cl)nn2)CC1)N1CCN(C2CCC2)CC1 [Compound 1055] , I found its pKi recorded as > 6.00

Looking up CN(C)c1ccc(-c2ccc(N3CCN(CC(=O)N4CCN(C5CCC5)CC4)CC3)nn2)cc1 [Compound 1099] , I found its pKi recorded as > 6.00

Looking up O=C(NC1CCCC1)c1cccc(N2CCN(CC(=O)N3CCN(C4CCC4)CC3)CC2)c1 [Compound 1081] , I found its pKi recorded as > 6.00

Looking up CCOc1ccccc1-c1cnc(N2CCN(CC(=O)N3CCN(C4CCC4)CC3)CC2)cn1 [Compound 955] , I found its pKi recorded as > 6.00

Looking up COc1ccc(N2CCN(CC(=O)N3CCN(C4CCC4)CC3)CC2C)cc1 (stereo not shown) [Compound 1103] , I found its pKi recorded as > 6.00

Looking up O=C(CN1CCN(c2ccc(-c3ccccc3F)nn2)CC1)N1CCN(C2CCC2)CC1 [Compound 1005] , I found its pKi recorded as > 6.00

Looking up O=C(CN1CCN(c2cnc(-c3cccc4c3oc3ccccc34)cn2)CC1)N1CCN(C2CCC2)CC1 [Compound 956] , I found its pKi recorded as > 6.00

Looking up CC(C)(C)CNC(=O)c1cccc(N2CCN(CC(=O)N3CCN(C4CCC4)CC3)CC2)c1 [Compound 1085] , I found its pKi recorded as > 6.00

Looking up O=C(CN1CCN(c2ccc(-c3cc(F)cc(F)c3)nn2)CC1)N1CCN(C2CCC2)CC1 [Compound 1052] , I found its pKi recorded as > 6.00

Looking up O=C(CN1CCN(c2ccc(-c3cccc(Cl)c3Cl)nn2)CC1)N1CCN(C2CCC2)CC1 [Compound 1054] , I found its pKi recorded as > 6.00

Looking up O=C(NC1CCCCC1)c1cccc(N2CCN(CC(=O)N3CCN(C4CCC4)CC3)CC2)c1 [Compound 1079] , I found its pKi recorded as > 6.00

Looking up O=C(CN1CCN(c2ccc(-c3cccc(Cl)c3)nn2)CC1)N1CCN(C2CCC2)CC1 [Compound 988] , I found its pKi recorded as > 6.00

Looking up CC1CCCN1C(=O)c1ccc(N2CCN(CC(=O)N3CCN(C4CCC4)CC3)CC2)nn1 (stereo not shown) [Compound 1064] , I found its pKi recorded as > 6.00

Looking up CC(C)NC(=O)c1cccc(N2CCN(CC(=O)N3CCN(C4CCC4)CC3)CC2)c1 [Compound 1080] , I found its pKi recorded as > 6.00

Looking up O=C(CN1CCN(c2ccc(-c3ccc(Cl)c(Cl)c3)nn2)CC1)N1CCN(C2CCC2)CC1 [Compound 1051] , I found its pKi recorded as > 6.00

Looking up O=C(CN1CCN(c2cnc(-c3cccc(F)c3F)cn2)CC1)N1CCN(C2CCC2)CC1 [Compound 966] , I found its pKi recorded as > 6.00
